In this section, each of the binders is paired with its reported koff.
Biological target: T1, mfPRLR.mmh (soluble monomeric macaca fascicularis PRLR) (macaca fascicularis)
T1 construct: soluble monomeric PRLR protein; also called macaca fascicularis (mf) PRLR.mmh; monkey PRLR
T1 chain: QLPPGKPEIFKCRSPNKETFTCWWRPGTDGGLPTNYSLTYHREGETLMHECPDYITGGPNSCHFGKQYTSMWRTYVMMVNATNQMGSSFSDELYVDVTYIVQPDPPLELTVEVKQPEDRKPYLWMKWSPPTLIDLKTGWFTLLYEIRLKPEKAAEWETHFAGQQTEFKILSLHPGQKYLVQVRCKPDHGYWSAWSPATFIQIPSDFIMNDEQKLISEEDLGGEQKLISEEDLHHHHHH
Assay: SPR (Biacore), antibody capture, 37 C

binder	koff (s⁻¹)
H1H6792P (antibody, human IgG1, V domains shown, human IgG1 Fc (H1H)) VH: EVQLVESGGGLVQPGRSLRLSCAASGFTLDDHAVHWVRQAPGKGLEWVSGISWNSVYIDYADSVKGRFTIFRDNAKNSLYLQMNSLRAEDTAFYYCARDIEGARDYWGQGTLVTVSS VL: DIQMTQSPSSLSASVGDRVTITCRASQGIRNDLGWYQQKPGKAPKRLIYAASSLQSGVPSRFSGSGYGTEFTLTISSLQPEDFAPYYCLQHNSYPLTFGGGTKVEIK	0.00286
H1H6804P (antibody, human IgG1, V domains shown, human IgG1 Fc (H1H)) VH: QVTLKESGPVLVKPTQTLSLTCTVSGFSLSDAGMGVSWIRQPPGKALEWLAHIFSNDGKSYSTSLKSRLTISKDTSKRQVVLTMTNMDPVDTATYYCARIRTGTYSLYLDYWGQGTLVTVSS VL: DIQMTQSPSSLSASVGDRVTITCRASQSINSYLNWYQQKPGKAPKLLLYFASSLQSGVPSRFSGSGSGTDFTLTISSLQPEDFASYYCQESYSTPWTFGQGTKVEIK	0.00426
H1H6953N (antibody, human IgG1, V domains shown, also called H1M6953N) VH: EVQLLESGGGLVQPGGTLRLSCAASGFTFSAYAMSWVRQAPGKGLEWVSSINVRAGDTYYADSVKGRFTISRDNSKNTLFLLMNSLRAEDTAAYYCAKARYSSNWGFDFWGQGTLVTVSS VL: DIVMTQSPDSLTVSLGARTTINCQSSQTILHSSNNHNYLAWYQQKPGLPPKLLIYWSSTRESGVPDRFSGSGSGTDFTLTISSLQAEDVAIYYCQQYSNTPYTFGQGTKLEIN	0.00256
H1H6966N (antibody, human IgG1, V domains shown, also called H2M6966N) VH: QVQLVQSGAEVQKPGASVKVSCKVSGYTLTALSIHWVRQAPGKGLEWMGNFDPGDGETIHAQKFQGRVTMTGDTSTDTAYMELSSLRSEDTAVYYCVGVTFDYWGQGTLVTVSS VL: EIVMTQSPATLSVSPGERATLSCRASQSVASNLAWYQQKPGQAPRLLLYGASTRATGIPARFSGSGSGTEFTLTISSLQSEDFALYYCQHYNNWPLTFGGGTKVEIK	0.0012
H1H6967N (antibody, human IgG1, V domains shown, also called H2M6967N) VH: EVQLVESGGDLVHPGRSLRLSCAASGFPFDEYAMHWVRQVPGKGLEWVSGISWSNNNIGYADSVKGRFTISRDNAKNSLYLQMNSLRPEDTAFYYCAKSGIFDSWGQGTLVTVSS VL: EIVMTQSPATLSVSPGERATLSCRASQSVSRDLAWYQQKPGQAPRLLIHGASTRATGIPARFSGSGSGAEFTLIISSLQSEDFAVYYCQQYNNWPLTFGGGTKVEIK	0.00162

The measurements presented in this section are drawn from patent US20180185504A1.
